These data points were gathered from patent US20120094995A1.

- Subject of test: human GlyT1b (Homo sapiens, UniProt P48067)
- Construct: expressed in transfected cells
- Sequence (P48067 1-652 isoform P48067-3): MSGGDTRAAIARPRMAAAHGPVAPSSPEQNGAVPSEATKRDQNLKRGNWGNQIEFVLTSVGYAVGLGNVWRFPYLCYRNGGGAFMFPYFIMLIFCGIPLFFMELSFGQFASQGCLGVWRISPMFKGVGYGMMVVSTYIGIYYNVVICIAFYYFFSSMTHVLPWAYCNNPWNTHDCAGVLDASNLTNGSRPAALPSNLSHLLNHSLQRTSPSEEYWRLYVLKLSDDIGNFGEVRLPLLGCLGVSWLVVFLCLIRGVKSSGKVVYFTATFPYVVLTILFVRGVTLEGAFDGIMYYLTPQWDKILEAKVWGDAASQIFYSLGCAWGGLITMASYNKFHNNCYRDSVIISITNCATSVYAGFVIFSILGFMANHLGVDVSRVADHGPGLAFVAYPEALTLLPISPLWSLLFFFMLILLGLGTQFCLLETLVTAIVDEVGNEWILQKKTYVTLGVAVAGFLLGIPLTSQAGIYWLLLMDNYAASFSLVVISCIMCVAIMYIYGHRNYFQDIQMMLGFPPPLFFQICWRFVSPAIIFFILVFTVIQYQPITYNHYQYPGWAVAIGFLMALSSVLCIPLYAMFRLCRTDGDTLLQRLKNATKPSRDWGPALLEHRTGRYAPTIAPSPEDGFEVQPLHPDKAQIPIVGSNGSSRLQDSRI
- Protocol description: [3H] Glycine Uptake Assay (SPA) in recombinant hGlyT1b-CHO cells
- Type: cell-based
- Stated conditions: Table 2, unit from table title
Endpoint name: IC50 (nM)
Your answer is read as nM, so omit the unit and give the number.

Some compounds with known IC50 results, for comparison:
[
  {
    "Compound": "Cc1cccc(C)c1C(=O)NC(c1cccc(F)c1)C12CCC(CC1)N2 (stereo not shown) [Example 35]",
    "Subject of test": "human GlyT1b (Homo sapiens, UniProt P48067)",
    "Value unit": "nM",
    "IC50": 18
  },
  {
    "Compound": "Cc1cc(F)cc(C)c1C(=O)NC(c1ccccc1)C12CCC(CC1)N2C (stereo not shown) [Example 82]",
    "Subject of test": "human GlyT1b (Homo sapiens, UniProt P48067)",
    "Value unit": "nM",
    "IC50": 4
  },
  {
    "Compound": "Cc1cccc(C)c1C(=O)N[C@H](c1ccc(F)cc1)C12CCC(CC1)N2 [Example 30]",
    "Subject of test": "human GlyT1b (Homo sapiens, UniProt P48067)",
    "Value unit": "nM",
    "IC50": 93
  },
  {
    "Compound": "Cc1cccc(C)c1C(=O)N[C@H](c1ccccc1)C12CCC(CC1)N2CC(C)C [Example 26]",
    "Subject of test": "human GlyT1b (Homo sapiens, UniProt P48067)",
    "Value unit": "nM",
    "IC50": 21
  },
  {
    "Compound": "Cc1ccc(C(NC(=O)c2c(C)cccc2C)C23CCC(CC2)N3C)o1 (single isomer, unassigned) [Example 91]",
    "Subject of test": "human GlyT1b (Homo sapiens, UniProt P48067)",
    "Value unit": "nM",
    "IC50": 344
  },
  {
    "Compound": "Cc1cccc(C)c1C(=O)NC(c1cccc(C#N)c1)C12CCC(CC1)N2C (stereo not shown) [Example 79]",
    "Subject of test": "human GlyT1b (Homo sapiens, UniProt P48067)",
    "Value unit": "nM",
    "IC50": 87
  },
  {
    "Compound": "Cc1cccc(C)c1C(=O)NC(c1ccc(F)cc1)C12CCC(CC1)N2C (single isomer, unassigned) [Example 47]",
    "Subject of test": "human GlyT1b (Homo sapiens, UniProt P48067)",
    "Value unit": "nM",
    "IC50": 2
  },
  {
    "Compound": "Cc1cccc(C)c1C(=O)NC(c1ccc(C#N)cc1)C12CCC(CC1)N2C (stereo not shown) [Example 93]",
    "Subject of test": "human GlyT1b (Homo sapiens, UniProt P48067)",
    "Value unit": "nM",
    "IC50": 226
  }
]

IC50 recorded for this compound, CSc1ncccc1C(=O)NC(c1ccncc1)C12CCC(CC1)N2C1CCC1 (single isomer, unassigned) [Example 101] , is 160

IC50 recorded for this compound, Cc1cccc(C)c1C(=O)N[C@H](c1ccccc1)C12CCC(CC1)N2CCC(F)(F)F [Example 58] , is 3
